- Measurement target: WT CBL-B (36-427) (Homo sapiens)
- Construct: N-terminal biotinylated WT CBL-B (36-427) and C-CBL (46-435) were captured on a streptavidin (SA) coated sensor chip
- Experiment summary: Surface Plasmon Resonance (SPR) assay, binding affinity and kinetics, CBL-B
- Conditions: SPR at 10° C., biotinylated WT CBL-B (36-427) on streptavidin chip; geometric mean; read-out: CBL-B SPR Kd (nM) GMean
Property: Kd; scope: individual compounds
# output: bare number, implied unit nM

The cases that follow already have their Kd on record.
[[record]]
compound = "CC(N)c1nc(C(F)(F)F)cc2c(-c3cccc(C4(Cc5nncn5C)COC4)c3)n[nH]c12 (single isomer, unassigned) [Example K17]"
measurement_target = "WT CBL-B (36-427) (Homo sapiens)"
value = 27.3

[[record]]
compound = "Cn1cnnc1CC1(c2cccc(-c3n[nH]c4c(CN5CCCCC5)nc(C(F)(F)F)cc34)c2)COC1"
measurement_target = "WT CBL-B (36-427) (Homo sapiens)"
value = 6.8


Turning now to a further record.
Lookup result for C[C@@H](N[C@@H]1CCC[C@@H]1O)c1nc(C(F)(F)F)cc2c(-c3cccc([C@H](c4nncn4C)C4CCC4)c3)n[nH]c12 (single isomer, unassigned) ; measured Kd: 3.6

###

Property: Ki; scope: individual compounds
- Measurement target: CBL-B (residues 36-427) (Homo sapiens, UniProt Q13191)
- Construct: Purified CBL-B (residues 36-427) and C-CBL (residues 46-435) proteins from baculovirus-infected insect cells; made in house; host or cells: baculovirus-infected insect cells
- Experiment summary: Ligand Displacement Assay (LDA), HTRF competitive binding against BODIPY-labeled fluorescent tracer, CBL-B
- Conditions: geometric mean of the number of tests, read-out: CBL-B Ki (nM) GMean
- Excerpt: Ligand Displacement Assay (LDA) […]

The cases that follow already have their Ki on record.
[[record]]
compound = "Cn1cnnc1[C@@H](c1cccc(-c2n[nH]c3c(CN4CC(F)(F)C4)nc(C(F)(F)F)cc23)c1)C1CCC1"
value = "73.8 nM"

[[record]]
compound = "C[C@H](O)CN[C@@H](C)c1nc(C(F)(F)F)cc2c(-c3cccc([C@H](c4nncn4C)C4CCC4)c3)n[nH]c12 (single isomer, unassigned)"
value = "1 nM"

[[record]]
compound = "Cn1cnnc1CC1(c2cccc(-c3n[nH]c4cnc(Cl)cc34)c2)COC1"
value = "28.6 nM"

[[record]]
compound = "C[C@H]1CN([C@@H](C)c2nc(C(F)(F)F)cc3c(-c4cccc(C5(Cc6nncn6C)COC5)c4)n[nH]c23)CCO1 (single isomer, unassigned)"
value = "7.4 nM"

[[record]]
compound = "Cn1cnnc1CC1(c2cccc(-c3n[nH]c4c(CN5CC[C@H](F)C5)nc(C(F)(F)F)cc34)c2)COC1"
value = "19.3 nM"


Field Ki (CBL-B (residues 36-427) (Homo sapiens, UniProt Q13191)), entry Cn1cnnc1[C@@H](c1cccc(-c2n[nH]c3c(CN[C@H]4CCOC4)nc(C(F)(F)F)cc23)c1)C1CCC1 [Example D1] : 22.4 nM

Field Ki (CBL-B (residues 36-427) (Homo sapiens, UniProt Q13191)), entry Cn1cnnc1[C@@H](c1cccc(-c2n[nH]c3c(CN4CC[C@H](O)C4)nc(C(F)(F)F)cc23)c1)C1CCC1 : 2.4 nM

Field Ki (CBL-B (residues 36-427) (Homo sapiens, UniProt Q13191)), entry C[C@H](c1nc(C(F)(F)F)cc2c(-c3cccc(C4(Cc5nncn5C)COC4)c3)n[nH]c12)N1C[C@H](F)[C@@H](F)C1 (single isomer, unassigned) : 25.4 nM

Field Ki (CBL-B (residues 36-427) (Homo sapiens, UniProt Q13191)), entry CC[C@@H](c1cccc(-c2n[nH]c3c([C@@H](C)NC[C@H](C)O)nc(C(F)(F)F)cc23)c1)c1nncn1C (single isomer, unassigned) : 296 nM

Field Ki (CBL-B (residues 36-427) (Homo sapiens, UniProt Q13191)), entry C[C@H](N[C@@H]1COC[C@@H]1O)c1nc(C(F)(F)F)cc2c(-c3cccc([C@H](c4nncn4C)C4CCC4)c3)n[nH]c12 (single isomer, unassigned) : 1.7 nM

###

Property: Ki; scope: individual molecules
- Measurement target: CBL-B (residues 36-427) (Homo sapiens, UniProt Q13191)
- Construct: Purified CBL-B (residues 36-427) and C-CBL (residues 46-435) proteins from baculovirus-infected insect cells; made in house; host or cells: baculovirus-infected insect cells
- Experiment summary: Ligand Displacement Assay (LDA), HTRF competitive binding against BODIPY-labeled fluorescent tracer, CBL-B
- Conditions: geometric mean of the number of tests, read-out: CBL-B Ki (nM) GMean
# output: bare number, implied unit nM

The cases that follow already have their Ki on record.
[[record]]
molecule = "CN1CC[C@H](Oc2nc(C(F)(F)F)cc3c(-c4cccc([C@H](c5nncn5C)C5CCC5)c4)n[nH]c23)C1"
endpoint = "Ki"
unit_abbreviation = "nM"
value = 10

[[record]]
molecule = "CNc1nc2[nH]nc(-c3cccc([C@H](c4nncn4C)C4CCC4)c3)c2cc1C(F)(F)F [E2]"
endpoint = "Ki"
unit_abbreviation = "nM"
value = 244


Lookup result for Cc1cc2c(-c3cccc([C@H](c4nncn4C)C4CCC4)c3)n[nH]c2cn1 ; measured Ki: 51.5

Lookup result for Cn1cnnc1[C@@H](c1cccc(-c2n[nH]c3c(CN4CCCC4)nc(C(F)(F)F)cc23)c1)C1CCC1 ; measured Ki: 29.2

Lookup result for Cn1cnnc1CC1(c2cccc(-c3n[nH]c4c(CNC5CCCC5)nc(C(F)(F)F)cc34)c2)COC1 ; measured Ki: 10.7

Lookup result for Cn1cnnc1[C@@H](c1cccc(-c2n[nH]c3c(CN4CCOCC4)nc(C(F)(F)F)cc23)c1)C1CCC1 ; measured Ki: 41.9

Lookup result for CCNC(C)c1nc(C(F)(F)F)cc2c(-c3cccc([C@H](c4nncn4C)C4CCC4)c3)n[nH]c12 (single isomer, unassigned) [Example C89] ; measured Ki: 8

###

- Measurement target: C-CBL (residues 46-435) (Homo sapiens, UniProt P22681)
- Construct: Purified CBL-B (residues 36-427) and C-CBL (residues 46-435) proteins from baculovirus-infected insect cells; made in house; host or cells: baculovirus-infected insect cells
- Experiment summary: Ligand Displacement Assay (LDA), HTRF competitive binding against BODIPY-labeled fluorescent tracer, C-CBL
- Conditions: geometric mean of the number of tests, read-out: C-CBL Ki (nM) GMean
- From the text: Ligand Displacement Assay (LDA) […]
Endpoint: Ki
Form field: result (number plus unit)

Lookup result for C[C@@H](N[C@H]1C[C@@H](O)C1)c1nc(C(F)(F)F)cc2c(-c3cccc([C@H](c4nncn4C)C4CCC4)c3)n[nH]c12 (single isomer, unassigned) ; measured Ki: 50.6 nM

Lookup result for Cn1cnnc1[C@@H](c1cccc(-c2n[nH]c3c(CN[C@H]4CC[C@H](O)C4)nc(C(F)(F)F)cc23)c1)C1CCC1 ; measured Ki: 106 nM

Lookup result for C[C@@H](NC1CCCC1)c1nc(C(F)(F)F)cc2c(-c3cccc(C4(Cc5nncn5C)COC4)c3)n[nH]c12 (single isomer, unassigned) ; measured Ki: 42.1 nM

###

- Measurement target: CBL-B (residues 36-427) (Homo sapiens)
- Construct: Purified CBL-B (residues 36-427) and C-CBL (residues 46-435) proteins from baculovirus-infected insect cells; made in house; host or cells: baculovirus-infected insect cells
- Experiment summary: Ligand Displacement Assay (LDA), HTRF competitive binding against BODIPY-labeled fluorescent tracer, CBL-B
- Conditions: geometric mean of the number of tests, read-out: CBL-B Ki (nM) GMean
Endpoint: Ki (nM)
# output: bare number, implied unit nM

The cases that follow already have their Ki on record.
[[record]]
compound = "CNc1nc(C(F)(F)F)cc2c(-c3cccc(C4(Cc5nncn5C)COC4)c3)n[nH]c12"
endpoint = "Ki"
unit_abbreviation = "nM"
value = 69.3

[[record]]
compound = "C[C@@H](c1nc(C(F)(F)F)cc2c(-c3cccc(C4(Cc5nncn5C)COC4)c3)n[nH]c12)N1CCC(F)(F)C1 (single isomer, unassigned)"
endpoint = "Ki"
unit_abbreviation = "nM"
value = 32.7

[[record]]
compound = "C[C@@H](c1nc(C(F)(F)F)cc2c(-c3cccc([C@H](c4nncn4C)C4CCC4)c3)n[nH]c12)N1CC[C@H](O)C1 (single isomer, unassigned) [Example D70]"
endpoint = "Ki"
unit_abbreviation = "nM"
value = 7.1


Turning now to a further record.
Lookup result for CC(NC1CC2(COC2)C1)c1nc(C(F)(F)F)cc2c(-c3cccc([C@H](c4nncn4C)C4CCC4)c3)n[nH]c12 (single isomer, unassigned) [Example C97] ; measured Ki: 31.8
